assay: Ratio of IC50 for cytotoxicity against human HET-1A cells to IC50 for cytotoxicity against human OE21 cells; assay type: toxicity, cell-based; conditions: HET-1A cells and OE21 cells, read-out: Ratio IC50

# structure smiles string, selectivity ratio
measured = [
    ("C[Si](C)(C)C#Cc1ccc(-c2nc3c4cccnc4c4ncccc4c3[nH]2)cc1", 7),
    ("Brc1ccc(-c2nc3c4cccnc4c4ncccc4c3[nH]2)cc1", 4),
]

====

test: Cytotoxicity against human HET-1A cells assessed as cell survival after 24 hrs by MTT assay; format: cell-based
pIC50: −log10 of the molar value.
outcome measure: pIC50

# structure smiles string, observed measurement
records = [
    ("Brc1ccc(-c2nc3c4cccnc4c4ncccc4c3[nH]2)cc1", 5.50),
    ("C[Si](C)(C)C#Cc1ccc(-c2nc3c4cccnc4c4ncccc4c3[nH]2)cc1", 5.52),
]
